PROTOCOL_DETAILS: inhibitors of TNFa-induced NFkB p65 translocation, primary screen, imaging, HUVEC, MLSMR starter and 10KST1 sets (AID 438);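 also: compound added about 3h40 before a 20 min TNFalpha stimulation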
DETAILS: HUVEC TNFa-induced p65 nuclear translocation; measured here: nuclei count (cytotoxicity indicator), at 2.08 µM
// class assignment uses cell count with these ranges: bin 1 (below 500), bin 2 (500 to below 600), bin 3 (600 or more)

Past entries and their recorded results:
COMPOUND	CAT
COc1cccc(/C(O)=C2/C(=O)C(=O)N(CCN(C)C)C2c2ccc(Br)cc2)c1 (centres undefined)	bin 1
N#C/C(=C\N1CCN(Cc2ccc3c(c2)OCO3)CC1)c1nc2ccccc2s1	bin 1
COc1cccc(N2CCN(C3CC(=O)N(c4cccc(Cl)c4)C3=O)CC2)c1 (centres undefined)	bin 1
Cc1ncc([N+](=O)[O-])n1CC(O)CCl (centres undefined)	bin 2
Cc1nnc(C)n1/N=C/c1cc(Br)cc(Br)c1O	bin 1
COc1cc(NC(=O)NC(C)(C(F)(F)F)C(F)(F)F)cc(OC)c1OC	bin 3
Cc1cc(=O)oc(C)c1C(=O)N1CCN(C)CC1	bin 1
Cc1ccc2cc(CN(C(=O)c3ccco3)c3ccccc3C)c(=O)[nH]c2c1	bin 1

Just checking, what class would you give COc1cc(-n2c3nc4ccccc4nc3c3c(=O)n(Cc4ccco4)cnc32)cc(OC)c1OC here? bin 1

Just checking, what class would you give CCOc1ccc(CCNC(=O)C(O)c2ccccc2)cc1 (centres undefined) here? bin 3

Just checking, what class would you give O=S(=O)(c1ccccc1)N1CCC(N2CCN(c3ccccc3)CC2)CC1 here? bin 1

Just checking, what class would you give COc1ccc2[nH]c(C)c(C(=O)CN3CC(C)OC(C)C3)c2c1 (centres undefined) here? bin 2

Just checking, what class would you give CO[C@H]1C=CO[C@@]2(C)Oc3c(C)c(O)c4c(O)c(c(C=NN5CCN(C)CC5)c(O)c4c3C2=O)NC(=O)C(C)=CC=C[C@H](C)[C@H](O)[C@@H](C)[C@@H](O)[C@@H](C)[C@H](OC(C)=O)[C@@H]1C here? bin 3

Just checking, what class would you give C=CCSc1nnc2n(-c3ccccc3OC)c(=O)c3c4c(sc3n12)CCC4 here? bin 2

Just checking, what class would you give CCOC(=O)CNS(=O)(=O)c1cc(-c2nn(C)c(=O)c3ccccc23)ccc1C here? bin 2

Just checking, what class would you give CC1CN(C2CCN(S(=O)(=O)Cc3ccccc3)CC2)CC(C)O1 (centres undefined) here? bin 1

Just checking, what class would you give N#CCCSc1nc(N2CCOCC2)c2c(c1C#N)CCCC2 here? bin 2

---

PROTOCOL_DETAILS: DUSP6 inhibitors restoring Erk phosphorylation by chemical complementation, primary imaging in DUSP6-transfected HeLa (AID 609)
DETAILS: HeLa MKP-3 transfected, phospho-Erk imaging KS statistic; measured here: cell density z-score; at 10 µM; cells stimulated with TPA for 15 min
Recorded z-score values for a group of molecules are listed next.
Give the value as a plain number.

MOLECULE	z-score
Cc1cc(=O)oc(C)c1C(=O)N1CCN(Cc2ccc3c(c2)OCO3)CC1	-0.184

Which z-score is listed for Cc1cc(C)nc(N(C#N)CC(=O)N(c2ccccc2)C(C)C)n1 ? -1.19

---

PROTOCOL_DETAILS: inhibitors of poly I:C-induced TLR3 signaling, primary screen, cell-based, poly I:C stimulus, luciferase, 10K MLSCN set (AID 602277)
DETAILS: HEK293-TLR3 RL24 IRF3 luciferase reporter, at 10 µM
Active and inactive are the calls of the source.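 Rule for the calls: active = inhibition of the reporter signal at or above 50%; inactive = inhibition below 50%.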
Log the outcome using a class from active, inactive

COMPOUND	CAT
C[C@@H]1C[C@H]2[C@@H]3C[C@H](F)C4=CC(=O)C=C[C@]4(C)[C@@]3(F)[C@@H](O)C[C@]2(C)[C@@]1(O)C(=O)COC(=O)C(C)(C)C	inactive

Lab log entry: O=C(CCCN1CC=C(n2c(=O)[nH]c3ccccc32)CC1)c1ccc(F)cc1 — outcome as called in the assay? inactive

Lab log entry: Cn1c(=O)c2c3c(sc2n2c(SCC(=O)c4ccc(Cl)cc4)nnc12)COC(C)(C)C3 — outcome as called in the assay? inactive

Lab log entry: CC1=C(/C=C/C(C)=C/C=C/C(C)=C/C(=O)O)C(C)(C)CCC1 — outcome as called in the assay? inactive

Lab log entry: Cn1cc(NC(=O)c2cc(NC(=O)c3cc(NC=O)cn3C)cn2C)cc1C(=O)NCCC(=N)N — outcome as called in the assay? inactive

Lab log entry: Cc1ccc(S(=O)(=O)NC(=O)NN2CCCCCC2)cc1 — outcome as called in the assay? inactive

Lab log entry: OCCN(CCO)c1nc(N2CCCCC2)c2nc(N(CCO)CCO)nc(N3CCCCC3)c2n1 — outcome as called in the assay? inactive

---

TARGET: Voltage-gated potassium channel subunit beta-2 (Rattus norvegicus) (UniProt P62483)
Sequence (P62483 whole entry, looked up): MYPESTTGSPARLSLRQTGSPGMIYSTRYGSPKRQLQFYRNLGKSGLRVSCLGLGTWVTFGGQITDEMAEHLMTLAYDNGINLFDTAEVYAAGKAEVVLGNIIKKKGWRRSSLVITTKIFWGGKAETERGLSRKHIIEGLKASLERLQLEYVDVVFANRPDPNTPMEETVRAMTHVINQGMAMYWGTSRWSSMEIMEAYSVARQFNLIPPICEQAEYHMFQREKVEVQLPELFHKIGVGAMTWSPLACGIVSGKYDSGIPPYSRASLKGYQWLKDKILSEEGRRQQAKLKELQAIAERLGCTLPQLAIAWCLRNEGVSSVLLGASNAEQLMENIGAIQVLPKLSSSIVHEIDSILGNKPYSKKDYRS
PROTOCOL_DETAILS: KvBeta positive modulators, primary screen, biochemical, NADPH fluorescence (AID 623);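 also: fluorescence intensity change per second fitted from 20 to 320 s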
DETAILS: Recombinant KvBeta, NADPH fluorescence decrease slope, 10 min; at 10 µM; stronger effect = lower value
Recorded NADPH fluorescence slope values for a group of molecules are listed next.
Give the value as a plain number.

MOLECULE	NADPH fluorescence slope
O=C1NC2c3ccccc3C(=O)N2c2c1cnn2-c1ccccc1 (configuration not stated)	-1.7e-05
NC(N)=NC(=O)c1nc(Cl)c(N)nc1N	-7.2e-05

Which NADPH fluorescence slope is listed for CC(COc1ccccc1)NC(C)C(O)c1ccc(O)cc1 (configuration not stated) ? 4.6e-06

Which NADPH fluorescence slope is listed for COc1cc(OC)cc(C(=O)N2CCC(N3CCCCCC3)CC2)c1 ? -2.1e-05

Which NADPH fluorescence slope is listed for CC(=O)Nc1ccc(S(=O)(=O)Nc2nc3n(n2)C(c2ccccc2)CC(=O)N3)cc1 (configuration not stated) ? -2e-05

Which NADPH fluorescence slope is listed for CCN(CC)CCNC(=O)c1ccc(NC(C)=O)cc1 ? -5.7e-05

Which NADPH fluorescence slope is listed for c1ccc2c(c1)NC(c1ccncc1)n1c-2nc2ccccc21 (configuration not stated) ? -5.4e-05

Which NADPH fluorescence slope is listed for CCOC(=O)c1ccc(N=CC2=C(O)CC(c3ccco3)CC2=O)cc1 (configuration not stated) ? -1.6e-05

Which NADPH fluorescence slope is listed for O=S(=O)(c1ccc(Cl)cc1)N1CCC(N2CCCCCC2)CC1 ? 6.3e-06

Which NADPH fluorescence slope is listed for CC(C)c1nc(N2CCOCC2)c(C#N)c2c1CCC2 ? 3.3e-06

Which NADPH fluorescence slope is listed for CC1(C)Cc2c(sc3ncn4nnnc4c23)CO1 ? -3.9e-05

Which NADPH fluorescence slope is listed for COc1ccccc1-n1c(=O)c2c3c(sc2n2c(SC)nnc12)CCC3 ? -5.4e-05

---

PROTOCOL_DETAILS: inhibitors of E-selectin induction by TNFa, primary screen, imaging, HUVEC, immunofluorescence, MLSMR starter and 10KST1 sets (AID 487);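 also: 100% = median nuclei count of all wells on the same plate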
DETAILS: HUVEC TNFalpha-induced E-selectin immunofluorescence imaging, at 2 µM; measured here: cell number, toxicity
MEASURE_NAME: nuclei count

// worked examples, nuclei count included
SMILES_STRING	MEASURED_VALUE
CC(=O)N1CCC2(CC1)C(C#N)=C(N)Oc1n[nH]c(C(F)(F)F)c12	156%
COC(=O)c1sc(NC(=O)C(C)C)c(C(=O)OC)c1C	93.5%
Cc1c(C(=O)O)c(=S)sn1CCOc1ccccc1	159%
COc1ccccc1-n1c(=O)c2c3c(sc2n2c(SC(C)C)nnc12)CCC3	145%

Which nuclei count is listed for COC(=O)CSc1nc(C)c(C(C)=O)cc1C#N ? 136%

Which nuclei count is listed for Cc1cc(=O)oc(C)c1C(=O)N1CCN(C)CC1 ? 167%

---

TARGET: Voltage-gated potassium channel subunit beta-2 (Rattus norvegicus) (UniProt P62483)
PROTOCOL_DETAILS: KvBeta positive modulators, primary screen, biochemical, NADPH fluorescence (AID 623);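 also: fluorescence intensity change per second fitted from 20 to 320 s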
DETAILS: Recombinant KvBeta, NADPH fluorescence decrease slope, 10 min; at 10 µM; stronger effect = lower value
Recorded NADPH fluorescence slope values for a group of compounds are listed next.
Give the value as a plain number.

COMPOUND	MEASURED_VALUE
C[C@]12CC[C@@H]3c4ccc(O)cc4C(=O)C[C@H]3[C@@H]1CC[C@@H]2O	-7.3e-05
Cn1c(=O)c2c3c(sc2n2c(SCc4ccccc4)nnc12)CCCC3	-1.7e-05
CC1(C)C/C(=C(/C#N)C(N)=O)CCO1	4.5e-06
CCCCC1CC1C(=O)Nc1ccc(OC)c(OC)c1 (stereo unspecified)	-2.3e-05
O=C(Nc1cccnc1)c1cccnc1	-3.1e-05
O=C(NCCOCCOCCNC(=O)c1cccnc1)c1cccnc1	-7.5e-05
CCOc1nnnc2c1sc1nc(N3CCOCC3)c3c(c12)CC(C)(C)OC3	1.4e-05
Cc1c(C(Nc2ccccn2)c2ccccc2)c(=O)n(-c2ccccc2)n1C (stereo unspecified)	-9.6e-05
COc1ccc(S(=O)(=O)N2CCC(N3CCCCC3)CC2)cc1	-2e-05
O=C(O)C(Cc1c[nH]c2ccccc12)NS(=O)(=O)c1cccc2nsnc12 (stereo unspecified)	-5.5e-05

Request: NADPH fluorescence slope, test system Voltage-gated potassium channel subunit beta-2 (Rattus norvegicus) (UniProt P62483), entry Cn1c(SCC(=O)N2CCOCC2)nnc1-c1cccc(NC(=O)c2ccccc2F)c1 -5.9e-05

Request: NADPH fluorescence slope, test system Voltage-gated potassium channel subunit beta-2 (Rattus norvegicus) (UniProt P62483), entry Oc1c(C=Nc2cccnc2)sc2ccccc12 -6e-05

Request: NADPH fluorescence slope, test system Voltage-gated potassium channel subunit beta-2 (Rattus norvegicus) (UniProt P62483), entry Cc1ccc(N(CN2C(=O)NC(C)(C)C2=O)CN2C(=O)NC(C)(C)C2=O)cc1 -9.5e-06

Request: NADPH fluorescence slope, test system Voltage-gated potassium channel subunit beta-2 (Rattus norvegicus) (UniProt P62483), entry COCCN(CCOC)C(=O)C12CCC(C)(C(=O)C1)C2(C)C (stereo unspecified) -5.9e-05

Request: NADPH fluorescence slope, test system Voltage-gated potassium channel subunit beta-2 (Rattus norvegicus) (UniProt P62483), entry COC(=O)CCC(=O)CN -6.5e-05

Request: NADPH fluorescence slope, test system Voltage-gated potassium channel subunit beta-2 (Rattus norvegicus) (UniProt P62483), entry Cc1oc2cc(O)ccc2c(=O)c1-c1cnn(-c2ccccc2)c1 1.2e-05

Request: NADPH fluorescence slope, test system Voltage-gated potassium channel subunit beta-2 (Rattus norvegicus) (UniProt P62483), entry CCOc1ccc2nc(SCC(=O)Nc3ncccn3)[nH]c2c1 -4.6e-05

Request: NADPH fluorescence slope, test system Voltage-gated potassium channel subunit beta-2 (Rattus norvegicus) (UniProt P62483), entry CC(=O)Oc1cccc2c1C(=O)c1c(OC(C)=O)cc(C(=O)O)cc1C2=O -4.5e-05
